Target: EPHB4 (Homo sapiens, UniProt P54760)
Sequence (P54760 16-987, species assumed): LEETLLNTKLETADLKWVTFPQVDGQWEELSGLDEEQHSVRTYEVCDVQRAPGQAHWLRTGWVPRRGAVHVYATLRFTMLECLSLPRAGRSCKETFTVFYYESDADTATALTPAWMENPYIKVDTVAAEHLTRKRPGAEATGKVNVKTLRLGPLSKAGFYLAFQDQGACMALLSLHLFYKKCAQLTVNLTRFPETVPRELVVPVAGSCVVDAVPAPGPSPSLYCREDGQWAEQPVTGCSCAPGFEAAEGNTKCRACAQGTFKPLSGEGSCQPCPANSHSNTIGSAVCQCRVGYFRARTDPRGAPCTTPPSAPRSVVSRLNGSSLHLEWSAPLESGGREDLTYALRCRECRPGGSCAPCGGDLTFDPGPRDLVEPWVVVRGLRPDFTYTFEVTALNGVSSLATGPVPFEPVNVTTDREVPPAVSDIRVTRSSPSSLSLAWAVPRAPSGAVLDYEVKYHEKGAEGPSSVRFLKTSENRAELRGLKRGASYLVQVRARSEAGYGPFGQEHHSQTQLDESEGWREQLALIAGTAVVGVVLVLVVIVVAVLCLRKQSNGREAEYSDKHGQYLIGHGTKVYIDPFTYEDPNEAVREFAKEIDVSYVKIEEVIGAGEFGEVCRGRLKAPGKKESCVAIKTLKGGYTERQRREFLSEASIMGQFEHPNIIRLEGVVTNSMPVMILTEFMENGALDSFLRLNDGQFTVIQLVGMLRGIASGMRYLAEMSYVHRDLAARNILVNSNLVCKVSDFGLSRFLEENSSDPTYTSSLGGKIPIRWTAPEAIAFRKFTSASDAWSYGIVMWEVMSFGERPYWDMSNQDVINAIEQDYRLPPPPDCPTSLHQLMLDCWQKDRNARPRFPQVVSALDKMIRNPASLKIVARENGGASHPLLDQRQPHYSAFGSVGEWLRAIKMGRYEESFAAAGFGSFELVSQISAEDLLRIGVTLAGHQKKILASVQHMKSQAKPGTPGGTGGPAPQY
endpoint.label: IC50

[in] Query: IC50; subject: COc1cc(Nc2ncnc(Nc3ccc(C)c(NS(C)(=O)=O)c3)n2)cc(OC)c1OC [Compound 305]
[out] 0.869 to 5.21 µM

// input: 6 molecules below; output: IC50 for each
1. COCCOc1ccc(Nc2ncnc(-c3ccccc3)n2)cc1 [Compound 155]
2. COc1cc(Nc2ncnc(-n3ccc4c(OC)cccc43)n2)cc(OC)c1OC [Compound 238]
3. COc1cc(Nc2ncnc(Nc3ccc(C)cc3F)n2)cc(OC)c1OC [Compound 937]
4. COc1cc(Nc2ncnc(Nc3ccccc3C)n2)cc(OC)c1OC [Compound 67]
5. COc1cc(Nc2ncnc(Nc3ccc(N4CCOCC4)cc3)n2)cc(OC)c1OC [Compound 101]
6. COc1cc(Nc2ncnc(N3CCCC4CCCCC43)n2)cc(OC)c1OC (stereo not drawn) [Compound 314]

[out]
1. > 14 µM
2. > 11 µM
3. 1.04 to 6.23 µM
4. 6.53 to 9.53 µM
5. > 10.3 µM
6. > 11.3 µM

// input: 2 molecules below; output: IC50 for each
1. FC(F)C(F)(F)Oc1cccc(Nc2ncnc(-c3ccnc(Cl)c3)n2)c1 [Compound 330]
2. c1ccc(-c2ncnc(Nc3ccc(OCCCN4CCOCC4)cc3)n2)cc1 [Compound 154]

[out]
6 to 8.76 µM
8.94 to 11.5 µM

====

Biological target: Itk (Homo sapiens)
Construct: Kinases are expressed as either kinase domains or full length constructs; made in house
Sequence (Q08881 1-620): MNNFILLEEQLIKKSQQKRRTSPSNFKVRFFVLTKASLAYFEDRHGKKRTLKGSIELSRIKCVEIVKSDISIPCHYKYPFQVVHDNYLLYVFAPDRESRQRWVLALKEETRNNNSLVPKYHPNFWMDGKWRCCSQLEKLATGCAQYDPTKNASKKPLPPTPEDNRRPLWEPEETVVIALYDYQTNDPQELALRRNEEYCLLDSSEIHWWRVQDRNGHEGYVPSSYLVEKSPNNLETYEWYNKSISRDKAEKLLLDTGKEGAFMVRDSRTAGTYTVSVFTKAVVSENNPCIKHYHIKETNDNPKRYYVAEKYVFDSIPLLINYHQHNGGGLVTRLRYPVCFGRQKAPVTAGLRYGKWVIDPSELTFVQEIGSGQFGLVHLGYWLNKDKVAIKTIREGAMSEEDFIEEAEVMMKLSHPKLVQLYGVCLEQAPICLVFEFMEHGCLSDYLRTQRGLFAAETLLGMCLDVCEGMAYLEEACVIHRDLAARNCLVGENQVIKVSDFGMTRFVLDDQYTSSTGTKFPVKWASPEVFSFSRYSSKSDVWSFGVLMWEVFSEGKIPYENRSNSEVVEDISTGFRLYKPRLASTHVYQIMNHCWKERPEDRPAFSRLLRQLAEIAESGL
Test: Kinase inhibition assay (33P transfer), Itk
Assay type: biochemical
Settings: Table 3; read-out: Itk-1
Exercise: for every item that follows, state its recorded IC50.

[in] Query: IC50; subject: COc1cc(Nc2ncnc(-c3c(O)[nH]c4ccccc34)n2)cc(OC)c1OC [Compound 380]
[out] > 11.4 µM

// input: 6 compounds below; output: IC50 for each
1. NC(=O)c1cccc(Nc2ncnc(-n3c(=O)[nH]c4ccccc43)n2)c1 [Compound 420]
2. Clc1cccc(Nc2ncnc(-c3cccs3)n2)c1 [Compound 360]
3. COc1cc(Nc2ncnc(N(Cc3ccccc3)c3nc4ccccc4[nH]3)n2)cc(OC)c1OC [Compound 373]
4. COc1cccc(Nc2ncnc(Nc3cc(OC)c(OC)c(OC)c3)n2)c1 [Compound 87]
5. COc1cc(Nc2ncnc(-c3ccnc(N4CCCCC4)c3)n2)cc(OC)c1OC [Compound 345]
6. COc1cc(Nc2ncnc(Nc3ccc(C)c([N+](=O)[O-])c3)n2)cc(OC)c1OC [Compound 934]

[out]
> 13 µM
> 15.6 µM
> 9.31 µM
> 11.7 µM
> 10.7 µM
> 10.9 µM

// input: 2 compounds below; output: IC50 for each
1. COc1ccc(Nc2ncnc(Nc3ccc(Oc4ccccc4)cc3)n2)cc1OC [Compound 929]
2. COc1cc(Nc2ncnc(-n3ccc4cc(Cl)ccc43)n2)cc(OC)c1OC [Compound 198]

[out]
["0.963 to 5.78 µM", "> 10.9 µM"]

====

Target: c-Met (Homo sapiens, UniProt P08581)
Construct: Kinases are expressed as either kinase domains or full length constructs; made in house
Sequence (P08581 25-1390): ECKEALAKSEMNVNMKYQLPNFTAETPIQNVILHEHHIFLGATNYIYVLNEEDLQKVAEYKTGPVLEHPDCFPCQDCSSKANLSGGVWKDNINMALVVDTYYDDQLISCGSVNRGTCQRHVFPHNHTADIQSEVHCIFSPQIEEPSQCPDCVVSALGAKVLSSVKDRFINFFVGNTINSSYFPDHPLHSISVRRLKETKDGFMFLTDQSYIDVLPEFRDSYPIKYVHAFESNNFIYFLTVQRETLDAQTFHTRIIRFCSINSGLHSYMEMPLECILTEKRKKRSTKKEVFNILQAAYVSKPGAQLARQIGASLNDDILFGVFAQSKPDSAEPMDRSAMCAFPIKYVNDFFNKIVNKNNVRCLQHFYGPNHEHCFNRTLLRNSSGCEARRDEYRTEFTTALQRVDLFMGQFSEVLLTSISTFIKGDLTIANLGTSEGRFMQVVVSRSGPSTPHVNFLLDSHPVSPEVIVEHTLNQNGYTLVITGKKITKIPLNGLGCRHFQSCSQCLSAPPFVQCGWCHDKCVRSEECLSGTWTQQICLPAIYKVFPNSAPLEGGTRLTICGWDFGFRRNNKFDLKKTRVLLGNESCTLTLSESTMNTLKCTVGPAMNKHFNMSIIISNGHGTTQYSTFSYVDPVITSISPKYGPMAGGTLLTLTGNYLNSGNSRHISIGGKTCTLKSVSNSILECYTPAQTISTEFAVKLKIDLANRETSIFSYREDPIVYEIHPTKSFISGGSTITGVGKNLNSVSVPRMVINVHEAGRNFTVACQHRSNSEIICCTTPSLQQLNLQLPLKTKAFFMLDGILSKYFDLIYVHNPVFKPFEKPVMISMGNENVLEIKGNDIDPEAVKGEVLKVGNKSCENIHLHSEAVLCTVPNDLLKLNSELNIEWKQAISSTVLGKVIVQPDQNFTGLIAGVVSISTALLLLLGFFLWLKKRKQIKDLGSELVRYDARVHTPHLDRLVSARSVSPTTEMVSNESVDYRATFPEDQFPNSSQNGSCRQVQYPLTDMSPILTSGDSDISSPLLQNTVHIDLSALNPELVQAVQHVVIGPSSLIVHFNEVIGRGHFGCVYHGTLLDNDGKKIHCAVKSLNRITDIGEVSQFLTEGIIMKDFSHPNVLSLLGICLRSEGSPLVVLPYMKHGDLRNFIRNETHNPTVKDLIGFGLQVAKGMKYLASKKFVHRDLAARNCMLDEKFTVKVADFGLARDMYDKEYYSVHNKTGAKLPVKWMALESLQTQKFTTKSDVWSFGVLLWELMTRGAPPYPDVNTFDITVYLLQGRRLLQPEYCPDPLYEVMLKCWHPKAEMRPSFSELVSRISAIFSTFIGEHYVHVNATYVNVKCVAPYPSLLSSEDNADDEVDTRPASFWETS
Assay: Kinase inhibition assay (33P transfer), c-Met
Type: biochemical
Details: Table 2, kinase inhibition class; read-out: Met-1
Experimental: The inhibitor compounds described herein are screened in the following manner. […] Kinases are expressed as either kinase domains or full length constructs fused to glutathione S-transferase (GST) or polyHistidine tagged fusion proteins in either E. colior Baculovirus-High Five expression systems. […] Kinase activity and inhibition are measured essentially by established protocols (Braunwalder et al., 1996). […]
endpoint.label: IC50

Check out these entries, answers already filled in.
[in] Query: IC50; subject: O=c1[nH]c2ccccc2n1-c1ncnc(Nc2ccc(F)c(Cl)c2)n1
[out] 6.73 to 9.81 µM

[in] Query: IC50; subject: COc1cc(Nc2ncnc(Nc3cc(C(C)(C)C)[nH]n3)n2)cc(OC)c1OC
[out] < 1 µM

[in] Query: IC50; subject: O=c1[nH]c2ccccc2n1-c1ncnc(Nc2ccc(Br)c(Cl)c2)n1
[out] > 10.8 µM

[in] Query: IC50; subject: CC(C)(C)c1cc(Nc2ncnc(Nc3cccc(CC(=O)O)c3)n2)[nH]n1
[out] 1.09 to 6.53 µM

[in] Query: IC50; subject: O=C(Nc1ccc(Nc2ncnc(-n3c(=O)[nH]c4ccccc43)n2)cc1)O[C@@H]1CCOC1
[out] 5.54 to 8.08 µM

// input: 2 molecules below; output: IC50 for each
1. COc1cc(Nc2ncnc(-n3c(N[C@H](C)c4ccccc4)nc4ccccc43)n2)cc(OC)c1OC
2. CN(c1ccccc1)c1ncnc(-n2c(N)nc3ccccc32)n1

[out]
7.03 to 9.04 µM
> 14.2 µM

[in] Query: IC50; subject: Cc1ccc2c(c1)CCCN2c1ncnc(NCCc2cccnc2)n1
[out] > 13 µM

====

Target: UniProt:P11362
Sequence (P11362 22-822, species assumed): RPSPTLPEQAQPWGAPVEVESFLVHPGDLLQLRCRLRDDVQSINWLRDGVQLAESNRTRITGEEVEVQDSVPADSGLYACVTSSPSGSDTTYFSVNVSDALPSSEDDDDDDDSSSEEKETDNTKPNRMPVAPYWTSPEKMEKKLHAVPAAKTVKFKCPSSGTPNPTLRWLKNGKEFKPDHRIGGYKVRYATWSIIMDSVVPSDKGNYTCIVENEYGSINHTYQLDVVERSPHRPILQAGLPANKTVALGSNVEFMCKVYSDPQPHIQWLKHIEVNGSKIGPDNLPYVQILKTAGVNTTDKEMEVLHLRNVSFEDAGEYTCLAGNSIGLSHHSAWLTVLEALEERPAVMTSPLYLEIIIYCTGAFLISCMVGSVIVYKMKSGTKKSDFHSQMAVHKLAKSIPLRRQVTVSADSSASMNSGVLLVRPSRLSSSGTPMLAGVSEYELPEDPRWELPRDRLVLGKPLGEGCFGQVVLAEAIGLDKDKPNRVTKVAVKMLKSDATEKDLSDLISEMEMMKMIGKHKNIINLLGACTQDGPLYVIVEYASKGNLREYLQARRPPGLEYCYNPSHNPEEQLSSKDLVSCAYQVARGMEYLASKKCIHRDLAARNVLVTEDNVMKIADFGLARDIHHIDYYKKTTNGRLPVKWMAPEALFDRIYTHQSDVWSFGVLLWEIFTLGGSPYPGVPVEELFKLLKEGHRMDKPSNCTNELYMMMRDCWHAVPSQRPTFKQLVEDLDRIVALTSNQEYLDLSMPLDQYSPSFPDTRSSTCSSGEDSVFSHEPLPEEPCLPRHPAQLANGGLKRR
endpoint.label: IC50

Check out these entries, answers already filled in.
[in] Query: IC50; subject: COc1cc(Nc2ncnc(-n3ccc4cc(F)ccc43)n2)cc(OC)c1OC
[out] > 11.4 µM

[in] Query: IC50; subject: COc1cc(Nc2ncnc(N(C)c3cccc(Cl)c3)n2)cc(OC)c1OC
[out] 0.995 to 5.97 µM

[in] Query: IC50; subject: COc1cc(Nc2ncnc(-n3cccc3)n2)cc(OC)c1OC
[out] > 13.7 µM

[in] Query: IC50; subject: COc1cc(Nc2ncnc(-n3c(NCc4cccc(Br)c4)nc4ccccc43)n2)cc(OC)c1OC
[out] < 0.711 µM

[in] Query: IC50; subject: COc1ccc2c(ccn2-c2ncnc(Nc3cc(OC)c(OC)c(OC)c3)n2)c1
[out] 5.89 to 8.59 µM

// input: 3 compounds below; output: IC50 for each
1. NC(=O)c1ccc(Nc2ncnc(-c3cccnc3NCc3ccccc3)n2)cc1
2. COc1cc(Nc2ncnc(-n3c(N[C@@H](C)c4ccccc4)nc4ccccc43)n2)cc(OC)c1OC
3. COc1cc(Nc2ncnc(Nc3ccccc3C)n2)cc(OC)c1OC

[out]
["> 11.3 µM", "< 0.804 µM", "> 12.2 µM"]

====

Exercise: for every item that follows, state its recorded IC50.
Target: Itk (Homo sapiens)
Construct: Kinases are expressed as either kinase domains or full length constructs; made in house
Sequence (Q08881 1-620): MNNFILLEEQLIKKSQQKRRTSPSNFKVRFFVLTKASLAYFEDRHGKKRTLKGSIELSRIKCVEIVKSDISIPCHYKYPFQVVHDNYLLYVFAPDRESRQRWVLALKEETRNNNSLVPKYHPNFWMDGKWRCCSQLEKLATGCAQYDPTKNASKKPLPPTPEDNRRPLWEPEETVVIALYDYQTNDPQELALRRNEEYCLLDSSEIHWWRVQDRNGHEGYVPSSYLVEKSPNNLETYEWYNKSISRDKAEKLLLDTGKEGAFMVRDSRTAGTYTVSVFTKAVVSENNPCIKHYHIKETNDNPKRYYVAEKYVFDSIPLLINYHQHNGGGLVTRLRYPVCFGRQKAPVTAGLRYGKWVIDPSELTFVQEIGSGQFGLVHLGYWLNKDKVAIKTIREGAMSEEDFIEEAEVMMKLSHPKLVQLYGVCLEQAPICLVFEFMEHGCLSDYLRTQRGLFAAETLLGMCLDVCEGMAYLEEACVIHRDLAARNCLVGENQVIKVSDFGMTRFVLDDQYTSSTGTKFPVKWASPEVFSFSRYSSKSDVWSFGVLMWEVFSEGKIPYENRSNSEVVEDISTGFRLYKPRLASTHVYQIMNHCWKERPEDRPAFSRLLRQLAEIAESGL
Test: Kinase inhibition assay (33P transfer), Itk
Assay type: biochemical
Conditions: read-out: Itk-1

Check out these entries, answers already filled in.
[in] Query: IC50; subject: COc1cc(Nc2ncnc(-n3c(NCc4ccccn4)nc4ccccc43)n2)cc(OC)c1OCCn1ccnn1 [Compound 942]
[out] > 7.96 µM

[in] Query: IC50; subject: COc1cc(Nc2ncnc(-n3c(NCc4cccs4)nc4ccccc43)n2)cc(OC)c1OC [Compound 950]
[out] > 9.19 µM

// input: 6 molecules below; output: IC50 for each
1. COc1cc(Nc2ncnc(N3c4ccccc4CCC3C)n2)cc(OC)c1OC (centres unmarked) [Compound 612]
2. COc1cc(Nc2ncnc(-n3c(NCc4ccc(F)cc4Cl)nc4ccccc43)n2)cc(OC)c1OC [Compound 951]
3. COc1cc(Nc2ncnc(-c3cccnc3NCc3ccc(F)cc3)n2)cc(OC)c1OC [Compound 1088]
4. C=CCNc1ncccc1-c1ncnc(Nc2ccc(C(N)=O)cc2)n1 [Compound 1081]
5. COc1cc(Nc2ncnc(-c3cccnc3Nc3cccc(C(N)=O)c3)n2)cc(OC)c1OC [Compound 1090]
6. COc1cc(Nc2ncnc(-n3c(NC(C)(C)c4ccccc4)nc4ccccc43)n2)cc(OC)c1OC [Compound 569]

[out]
1: 0.982 to 5.89 µM; 2: > 8.4 µM; 3: > 9.73 µM; 4: > 13 µM; 5: > 9.5 µM; 6: > 8.8 µM
